B1: Formin-binding protein 4, residues 200 to 261; numbered along this chain, Q8N3X1 (parent)
chain: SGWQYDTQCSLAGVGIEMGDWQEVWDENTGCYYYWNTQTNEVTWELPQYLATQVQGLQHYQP

Variants of: B1
PROCEDURE SUMMARY: abundance fitness (aPCA) (normalised: wild type 0, dead -1); higher = more abundant; growth selection in yeast, the domain comes from the species named
CONDITION DETAILS: Homo sapiens
Measured abundance fitness, listed per entry.
Enter the number alone.

{"MUTATIONS": "G30Y", "abundance fitness": -0.473}
{"MUTATIONS": "Y32P", "abundance fitness": -0.417}
{"MUTATIONS": "V14N", "abundance fitness": -0.067}
{"MUTATIONS": "A51E", "abundance fitness": -0.3}
{"MUTATIONS": "D6W", "abundance fitness": -0.555}
{"MUTATIONS": "Q61L", "abundance fitness": -0.132}

// sample Q55A , its abundance fitness was -0.012

For record S10Q the listed abundance fitness is -0.498

Short answer for I16W : abundance fitness was -0.671
